Consider the following compounds; for each one, report its viability, T/C.
Tested on: 422866-222-R5-J1-PDC spheroids with HUVEC/MSC, viability;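 also: spheroids exposed to compounds for seven days before reading; percent viability relative to DMSO vehicle control taken as 100%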
assay-protocol: Anticancer human tumor 422866-222-R5-J1-PDC patient-derived pancreatic adenocarcinoma cell line growth inhibition [GQUAD]
experimental-setup: second compound 10 µM; first compound 10 µM; hits give low values
Express it in %; write the number only.

Give viability, T/C for the following compound: O=C(NO)c1cnc(N2CCN(S(=O)(=O)c3ccc4ccccc4c3)CC2)nc1 + CN(C)c1ccc(Nc2c3ccc(NC(=O)CCN4CCCC4)cc3nc3cc(NC(=O)CCN4CCCC4)ccc23)cc1
1.96

Give viability, T/C for the following compound: C#Cc1c(F)ccc2cc(O)cc(-c3ncc4c(N5CC6CCC(C5)N6)nc(OCC56CCCN5CC(F)C6)nc4c3F)c12 (stereo not given) + Cc1[nH]c2ccc(F)cc2c1-c1nc2c3cccnc3c3ncccc3c2[nH]1
38

Give viability, T/C for the following compound: O=C(NO)c1cnc(N2CCN(S(=O)(=O)c3ccc4ccccc4c3)CC2)nc1 + Cc1cnc(CNC(=O)c2c(=O)c3ccc(N4CCCN(C)CC4)nc3n3c2sc2ccccc23)cn1
0.26

Give viability, T/C for the following compound: C=CCn1c(=O)c2cnc(Nc3ccc(N4CCN(C)CC4)cc3)nc2n1-c1cccc(C(C)(C)O)n1 + CN(C)c1ccc(Nc2c3ccc(NC(=O)CCN4CCCC4)cc3nc3cc(NC(=O)CCN4CCCC4)ccc23)cc1
45.1

Give viability, T/C for the following compound: O=C(c1cc(Cc2n[nH]c(=O)c3ccccc23)ccc1F)N1CCN(C(=O)C2CC2)CC1 + CN(C)c1ccc(Nc2c3ccc(NC(=O)CCN4CCCC4)cc3nc3cc(NC(=O)CCN4CCCC4)ccc23)cc1
79.9

Give viability, T/C for the following compound: CC1COCCN1c1cc(C2(S(C)(=N)=O)CC2)nc(-c2ccnc3[nH]ccc23)n1 (stereo not given) + Cc1cnc(CNC(=O)c2c(=O)c3ccc(N4CCCN(C)CC4)nc3n3c2sc2ccccc23)cn1
64.7

Give viability, T/C for the following compound: COc1ncnc(C2CC2)c1-c1ncc2cnn(Cc3ccc(-c4nc(C(F)(F)F)cn4C(C)C)cc3)c2n1 + Cc1[nH]c2ccc(F)cc2c1-c1nc2c3cccnc3c3ncccc3c2[nH]1
50.2

Give viability, T/C for the following compound: COc1ncnc(C2CC2)c1-c1ncc2cnn(Cc3ccc(-c4nc(C(F)(F)F)cn4C(C)C)cc3)c2n1 + Cc1cnc(CNC(=O)c2c(=O)c3ccc(N4CCCN(C)CC4)nc3n3c2sc2ccccc23)cn1
88.2

Give viability, T/C for the following compound: C=CCn1c(=O)c2cnc(Nc3ccc(N4CCN(C)CC4)cc3)nc2n1-c1cccc(C(C)(C)O)n1 + Cc1cnc(CNC(=O)c2c(=O)c3ccc(N4CCCN(C)CC4)nc3n3c2sc2ccccc23)cn1
42.3

Give viability, T/C for the following compound: CC(C)n1c(=O)n(C)c2cnc3cc(F)c(-c4ccc(OCCCN5CCCCC5)nc4)cc3c21 + CN(C)c1ccc(Nc2c3ccc(NC(=O)CCN4CCCC4)cc3nc3cc(NC(=O)CCN4CCCC4)ccc23)cc1
51.7

Numbers sourced from PubChem BioAssay AID2060511.
